# ASSAYED TARGET: RUNX1 (UniProt Q01196)
# Sequence (Q01196 whole entry): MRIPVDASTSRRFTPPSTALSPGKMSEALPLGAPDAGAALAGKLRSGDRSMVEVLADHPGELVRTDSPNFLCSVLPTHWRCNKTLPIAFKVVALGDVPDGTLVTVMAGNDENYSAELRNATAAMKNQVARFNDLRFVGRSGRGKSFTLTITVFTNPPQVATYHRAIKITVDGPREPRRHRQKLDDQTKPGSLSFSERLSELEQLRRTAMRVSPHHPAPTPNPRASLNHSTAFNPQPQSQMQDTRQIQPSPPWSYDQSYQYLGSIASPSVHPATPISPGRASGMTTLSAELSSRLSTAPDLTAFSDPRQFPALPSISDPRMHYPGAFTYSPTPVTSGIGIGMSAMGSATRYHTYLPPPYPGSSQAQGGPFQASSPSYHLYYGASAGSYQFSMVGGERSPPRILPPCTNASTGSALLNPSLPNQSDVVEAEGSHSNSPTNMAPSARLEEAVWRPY
# ASSAY COMMENT: RUNX1 binding intensity (PBM fluorescence) in presence of ETS1, normalised to RUNX1-only experiment (arbitrary fluorescence units); higher = stronger binding;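 also: Full-length recombinant human ETS1 or RUNX1 bound to double-stranded 36-bp genomic probes on microarrays, detected by protein-specific primary antibody and Alexa488 secondary, spot fluorescence as median of four replicate spots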
# CONDITION DESCRIPTION: RUNX1 concentration 2 nM; ETS1 concentration 25 nM
Record 1 whenever RUNX1 binding intensity is at 1000 or higher; record 0 when lower.

SEQUENCE RECORD	ASSIGNED LABEL
ACTGCACGGCTGGGAGGATGTGGTCACACACGCCAC	1
CTCATCAGTCATCCGGCTGGACCGCAGGAGCTCTCC	1
CATACAGGATGCTGGGGTATGTAAAACAAACCACGG	0
GATGGTGTCTTTTGGGGATGTGGGTTTGGGGGATGG	0
CTGAAACAGGAAGCTGAGGGTGCGGTTGGGGGAGGA	1
